# protocol.description: Rcp of ^99mTc-HMPAO after addition of a single stabiliser, two step process (Example 1)
# Assay type: physicochemical
# condition.description: additive added 2 minutes post-radiolabelling; amount as in table; n = 3 (*n = 1)
property.label: Rcp 3 hours from addition (%)

A = Nc1ccc(C(=O)[O-])cc1.[Na+] [Sodium4-amino-benzoate, sodium 4-aminobenzoate]
B = Nc1ccc(C(=O)O)cc1 [4-Aminobenzoic acid, 4-aminobenzoic acid]
Select one. Lower Rcp 3 hours from addition (%): A or B Response format: the label of the selected entry. A
(A: 39%, B: 67%)

---

# protocol.description: Rcp of ^99mTc-HMPAO after addition of a single stabiliser, two step process (Example 1)
# Type: physicochemical
# condition.description: additive added 2 minutes post-radiolabelling; amount as in table; n = 3 (*n = 1)
property.label: Rcp 1 min from addition (%)

Nc1ccc(C(=O)[O-])cc1.[Na+] [Sodium4-amino-benzoate, sodium 4-aminobenzoate] ... 69
Nc1ccc(C(=O)O)cc1 ... 80
[Cl][Co][Cl] [Cobalt chloride] ... 94
O=C(NCCO)c1cc(O)ccc1O [Gentisic acid ethanolamide] ... 61
O=C(O)c1cc(O)ccc1O ... 87

Hey, just so you know, these numbers are from patent US7914768B2.
